Target: Gonadotropin-releasing hormone receptor (Homo sapiens)
Sequence (P30968 whole entry): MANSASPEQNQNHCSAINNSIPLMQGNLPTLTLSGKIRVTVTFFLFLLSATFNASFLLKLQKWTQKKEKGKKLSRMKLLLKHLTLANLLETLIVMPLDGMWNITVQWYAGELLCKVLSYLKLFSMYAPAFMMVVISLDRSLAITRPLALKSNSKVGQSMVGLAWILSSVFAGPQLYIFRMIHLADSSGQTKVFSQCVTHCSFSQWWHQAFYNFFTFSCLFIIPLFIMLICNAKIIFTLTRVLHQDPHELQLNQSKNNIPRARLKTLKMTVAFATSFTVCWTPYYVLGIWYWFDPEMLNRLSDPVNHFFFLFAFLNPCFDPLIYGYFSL
Test: Binding affinity against human luteinizing releasing hormone receptor cloned in CHO cells
measurement kind: Ki (nM)
Number in nM, nothing else.

# get_value(readout= Ki, system= Gonadotropin-releasing hormone receptor (Homo sapiens)) for CC[C@H]1OC(=O)[C@H](C)[C@@H](OC2C[C@@](C)(OC)[C@@H](O)[C@H](C)O2)[C@H](C)[C@@H](OC2O[C@H](C)C[C@H](N(C)C)[C@H]2O)[C@@](C)(OC)C[C@@H](C)C(=O)[C@H](C)[C@H]2N(CCc3ccc(Cl)cc3)C(=O)O[C@]12C (stereo not given in full)
191

Record lookup: for Gonadotropin-releasing hormone receptor (Homo sapiens), what Ki belongs to CC[C@H]1OC(=O)[C@H](C)[C@@H](OC2C[C@@](C)(OC)[C@@H](O)[C@H](C)O2)[C@H](C)[C@@H](OC2O[C@H](C)C[C@H](N(C)CC3CC3)[C@H]2O)[C@@](C)(OC)C[C@@H](C)C(=O)[C@H](C)[C@H]2N(CCc3ccc(Cl)cc3)C(=O)O[C@]12C (stereo not given in full) ?
13.2

// map CC[C@H]1OC(=O)[C@H](C)[C@@H](OC2C[C@@](C)(OC)[C@@H](O)[C@H](C)O2)[C@H](C)[C@@H](OC2O[C@H](C)C[C@H](NC)[C@H]2O)[C@@](C)(OC)C[C@@H](C)C(=O)[C@H](C)[C@H]2N(CCc3ccc(Cl)cc3)C(=O)O[C@]12C (stereo not given in full) to recorded Ki (system: Gonadotropin-releasing hormone receptor (Homo sapiens))
79.4

Request body: readout Ki, system Gonadotropin-releasing hormone receptor (Homo sapiens), query CC[C@H]1OC(=O)[C@H](C)[C@@H](OC(=O)N2C(=O)OC[C@@H]2C)[C@H](C)[C@@H](OC2O[C@H](C)C[C@H](N(C)CC3CC3)[C@H]2O)[C@@](C)(OC)C[C@@H](C)C(=O)[C@H](C)[C@H]2N(CCc3ccc(Cl)cc3)C(=O)O[C@]12C (stereo not given in full) . Return the value.
18.6

Under Gonadotropin-releasing hormone receptor (Homo sapiens): Ki value of CCC(C)N(CC1CC1)[C@H]1C[C@@H](C)OC(O[C@@H]2[C@@H](C)[C@H](OC3C[C@@](C)(OC)[C@@H](O)[C@H](C)O3)[C@@H](C)C(=O)O[C@H](CC)[C@@]3(C)OC(=O)N(CCc4ccc(Cl)cc4)[C@@H]3[C@@H](C)C(=O)[C@H](C)C[C@]2(C)OC)[C@@H]1O (stereo not given in full) ?
27.5
